protocol details: NCI Yeast Anticancer Drug Screen. Data for the mlh1 rad18 strain (AID 175)
test conditions: S. cerevisiae mlh1 rad18 strain growth inhibition; at 50.0 µM; hits give high values
About 79,000 compounds went through this panel and 15% of them were active in at least one assay; those are over-represented in the sample as a whole. Calls of active or inactive are those of the source. Rule as the data show it: active = growth inhibition above about 70%; inactive = the rest.
result type: growth inhibition

{"compound": "Nc1nnc(-c2ccccc2)o1", "measured": "3.35% (inactive)"}
{"compound": "CCCC(=O)C1=CC(C(C)C)CCC1C (stereo not given)", "measured": "1% (inactive)"}

Inquiry: Please look at this compound and report its growth inhibition: Cn1ccccc1=O
Reply text: 27.2% (inactive)

Inquiry: In one line, give reported growth inhibition of the entry CC1(C)CS(=O)(=O)CC(C)(C)C(=O)C1=O .
Reply text: -3.4% (inactive)

Inquiry: Supply measured growth inhibition of O=C(C[N+]12CN3CN(CN(C3)C1)C2)c1ccc(-c2ccccc2)cc1 in your reply.
Reply text: 45.6% (inactive)

Inquiry: In one line, give reported growth inhibition of the entry CCN(CC)CCCC#N .
Reply text: -2.85% (inactive)

Inquiry: Supply measured growth inhibition of CNC(=O)c1ccccc1C(=N)c1ccccc1 in your reply.
Reply text: -8.35% (inactive)

Inquiry: // Input: COC(=O)C(=O)Cc1cccc(OC(C)=O)c1C(=O)OC . Output its growth inhibition only.
Reply text: 2.6% (inactive)

Inquiry: # return recorded growth inhibition for input Cc1cc(-c2ccccc2)n(C(C(=O)c2ccccc2)c2ccccc2)n1 (stereo not given)
Reply text: -15.2% (inactive)

Inquiry: Specify growth inhibition for CCOC(=O)/C(=C/c1ccc(C#N)cc1)N(CC)CC and stop.
Reply text: -9.25% (inactive)

Inquiry: Using the record for O=C(CC1(O)CCCCC1)Nc1ccccc1 , state its measured growth inhibition.
Reply text: -13.1% (inactive)

Inquiry: For the compound Cn1nc(-c2ccccc2)c(-c2ccccc2)c(C#N)c1=O , give its measured growth inhibition value.
Reply text: 0.8% (inactive)
